MEASURED_ON: human LPA1 (Homo sapiens, UniProt Q92633)
Sequence (Q92633 whole entry): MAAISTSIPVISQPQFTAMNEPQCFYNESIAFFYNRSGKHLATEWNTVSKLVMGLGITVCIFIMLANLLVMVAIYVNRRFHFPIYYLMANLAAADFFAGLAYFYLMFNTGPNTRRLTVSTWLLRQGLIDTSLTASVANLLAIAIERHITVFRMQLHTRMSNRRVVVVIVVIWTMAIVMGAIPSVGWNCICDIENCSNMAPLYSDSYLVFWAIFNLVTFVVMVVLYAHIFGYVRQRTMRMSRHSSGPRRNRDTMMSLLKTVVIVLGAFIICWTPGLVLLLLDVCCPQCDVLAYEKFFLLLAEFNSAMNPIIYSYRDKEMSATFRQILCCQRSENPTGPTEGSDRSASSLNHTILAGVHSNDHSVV
TEST_SUMMARY: NanoBiT-G-protein dissociation assay
CONDITION_INFO: EC50, WT LPA1
PROPERTY_LABEL: pEC50
Please express pEC50 as -log10 of the molar concentration.

// fetch pEC50 given entry CCc1oc2c([C@H](CO)N(CC)CC)cccc2c1C [CpY]
9.02

Data provenance: paper PMC11541586
